Cited source for all entries: patent US8779004B2

Test: pH and particle size of crude cinacalcet emulsions with different oils and phospholipids
Assay type: physicochemical
Details: crude emulsion; MCT 5%; 1% Purified Egg Lecithin
Endpoint: D(4, 3) (µm)
# output: bare number, implied unit µm

Quick check: D(4, 3) of `C[C@@H](NCCCc1cccc(C(F)(F)F)c1)c1cccc2ccccc12` ?
0.39

----------
Test: Short-term storage stability of emulsions (drug conc., pH, particle size)
Format: physicochemical
Conditions: emulsion; DEA 0.30%; 40° C.; 4 weeks
Endpoint: D(4, 3) (µm)
# output: bare number, implied unit µm

Quick check: D(4, 3) of C[C@@H](NCCCc1cccc(C(F)(F)F)c1)c1cccc2ccccc12 [Cinacalcet] ?
0.36

----------
Test: Solubility of calcimimetics in oil phases (RP-HPLC)
Assay type: physicochemical
Conditions: Long Chain Triglycerides (oil phase) with soy lecithin, oil or lipid, thermodynamic from solid; Long Chain Triglycerides; Soy lecithin
Endpoint: solubility at 18 h

Quick check: solubility at 18 h of `C[C@@H](NCCCc1cccc(C(F)(F)F)c1)c1cccc2ccccc12` ?
> 304 mg/mL

----------
Experiment: pH and particle size of crude cinacalcet emulsions with different oils and phospholipids
Type: physicochemical
Conditions: crude emulsion; SBO 10%; 1% Purified Egg Lecithin
Endpoint: D(4, 3) (µm)
# output: bare number, implied unit µm

Quick check: D(4, 3) of C[C@@H](NCCCc1cccc(C(F)(F)F)c1)c1cccc2ccccc12 [Cinacalcet] ?
0.65

----------
Test: Short-term storage stability of emulsions (drug conc., pH, particle size)
Type: physicochemical
Details: emulsion; TRIS 20 mM; 5° C.; 0 weeks
Endpoint: D(4, 3) (µm)
# output: bare number, implied unit µm

Quick check: D(4, 3) of C[C@@H](NCCCc1cccc(C(F)(F)F)c1)c1cccc2ccccc12 [Cinacalcet] ?
0.29

----------
Assay: pH and particle size of crude cinacalcet emulsions with different oils and phospholipids
Type: physicochemical
Settings: crude emulsion; SBO 10%; % Purified Soy Lecithin
Endpoint: D(4, 3) (µm)
# output: bare number, implied unit µm

Quick check: D(4, 3) of C[C@@H](NCCCc1cccc(C(F)(F)F)c1)c1cccc2ccccc12 [Cinacalcet] ?
0.4

----------
Test: pH and particle size of crude cinacalcet emulsions with different oils and phospholipids
Assay type: physicochemical
Settings: crude emulsion; STG 5%; 2% Purified Egg Lecithin
Endpoint: D(4, 3) (µm)
# output: bare number, implied unit µm

Quick check: D(4, 3) of `C[C@@H](NCCCc1cccc(C(F)(F)F)c1)c1cccc2ccccc12` ?
0.52

----------
Assay: Short-term storage stability of emulsions (drug conc., pH, particle size)
Format: physicochemical
Conditions: emulsion; TRIS 5 mM; 40° C.; 0 weeks
Endpoint: D(4, 3) (µm)
# output: bare number, implied unit µm

Quick check: D(4, 3) of `C[C@@H](NCCCc1cccc(C(F)(F)F)c1)c1cccc2ccccc12` ?
0.31

----------
Assay: Short-term storage stability of emulsions (drug conc., pH, particle size)
Type: physicochemical
Conditions: emulsion; TRIS 5 mM; 5° C.; 8 weeks
Endpoint: D(4, 3) (µm)
# output: bare number, implied unit µm

Quick check: D(4, 3) of `C[C@@H](NCCCc1cccc(C(F)(F)F)c1)c1cccc2ccccc12` ?
0.31
